Hey, just so you know, these numbers are from patent US7575930B2.

# Assay: Monitoring of the plasma concentration of the main oligosaccharides of a VLMWH in human volunteers (plasma filtration + anion-exchange HPLC)
# Format: in vivo
# Condition info: 14 h after administration of VLMWH (2500 Da) 1.4 mg/kg
For each record, write down the corresponding plasma concentration.
Write the answer as a number in nM, unit excluded.

Give the measured plasma concentration for O=C(O)C1=CC(O)C(OS(=O)(=O)O)C(OC2C(COS(=O)(=O)O)OC(OC3C(C(=O)O)OC(OC4C(COS(=O)(=O)O)OC(O)C(NS(=O)(=O)O)C4O)C(OS(=O)(=O)O)C3O)C(NS(=O)(=O)O)C2O)O1 (centres unmarked) 0

Give the measured plasma concentration for O=C(O)C1=CC(O)C(OS(=O)(=O)O)C(OC2C(COS(=O)(=O)O)OC(O)C(NS(=O)(=O)O)C2O)O1 (centres unmarked) 0

Give the measured plasma concentration for CC(=O)NC1C(OC2C(C(=O)O)OC(OC3C(COS(=O)(=O)O)OC(OC4C(C(=O)O)OC(OC5C(COS(=O)(=O)O)OC(OC6C(C(=O)O)OC(OC7C(COS(=O)(=O)O)OC(O)C(NS(=O)(=O)O)C7O)C(OS(=O)(=O)O)C6O)C(NS(=O)(=O)O)C5O)C(OS(=O)(=O)O)C4O)C(NS(=O)(=O)O)C3OS(=O)(=O)O)C(O)C2O)OC(COS(=O)(=O)O)C(OC2OC(C(=O)O)=CC(O)C2O)C1O (centres unmarked) 20

Give the measured plasma concentration for O=C(O)C1=CC(O)C(OS(=O)(=O)O)C(OC2C(COS(=O)(=O)O)OC(OC3C(C(=O)O)OC(OC4C(COS(=O)(=O)O)OC(OC5C(C(=O)O)OC(OC6C(COS(=O)(=O)O)OC(O)C(NS(=O)(=O)O)C6O)C(OS(=O)(=O)O)C5O)C(NS(=O)(=O)O)C4O)C(OS(=O)(=O)O)C3O)C(NS(=O)(=O)O)C2O)O1 (centres unmarked) 0

Give the measured plasma concentration for CC(=O)NC1C(OC2C(C(=O)O)OC(OC3C(COS(=O)(=O)O)OC(OC4C(C(=O)O)OC(OC5C(COS(=O)(=O)O)OC(O)C(NS(=O)(=O)O)C5O)C(OS(=O)(=O)O)C4O)C(NS(=O)(=O)O)C3OS(=O)(=O)O)C(O)C2O)OC(COS(=O)(=O)O)C(OC2OC(C(=O)O)=CC(O)C2O)C1O (centres unmarked) 70

====

# Assay: Monitoring of the plasma concentration of the main oligosaccharides of a VLMWH in human volunteers (plasma filtration + anion-exchange HPLC)
# Type: in vivo
# Condition info: 3.5 h after administration of VLMWH (2500 Da) 1.4 mg/kg
Label Yes when plasma concentration < 70 nM; otherwise No.

In plain terms, does O=C(O)C1=CC(O)C(OS(=O)(=O)O)C(OC2C(COS(=O)(=O)O)OC(O)C(NS(=O)(=O)O)C2O)O1 (centres unmarked) come in under 70 nM for plasma concentration? No

In plain terms, does O=C(O)C1=CC(O)C(OS(=O)(=O)O)C(OC2C(COS(=O)(=O)O)OC(OC3C(C(=O)O)OC(OC4C(COS(=O)(=O)O)OC(OC5C(C(=O)O)OC(OC6C(COS(=O)(=O)O)OC(O)C(NS(=O)(=O)O)C6O)C(OS(=O)(=O)O)C5O)C(NS(=O)(=O)O)C4O)C(OS(=O)(=O)O)C3O)C(NS(=O)(=O)O)C2O)O1 (centres unmarked) come in under 70 nM for plasma concentration? Yes

In plain terms, does CC(=O)NC1C(OC2C(C(=O)O)OC(OC3C(COS(=O)(=O)O)OC(OC4C(C(=O)O)OC(OC5C(COS(=O)(=O)O)OC(O)C(NS(=O)(=O)O)C5O)C(OS(=O)(=O)O)C4O)C(NS(=O)(=O)O)C3OS(=O)(=O)O)C(O)C2O)OC(COS(=O)(=O)O)C(OC2OC(C(=O)O)=CC(O)C2O)C1O (centres unmarked) come in under 70 nM for plasma concentration? No

In plain terms, does CC(=O)NC1C(OC2C(C(=O)O)OC(OC3C(COS(=O)(=O)O)OC(OC4C(C(=O)O)OC(OC5C(COS(=O)(=O)O)OC(OC6C(C(=O)O)OC(OC7C(COS(=O)(=O)O)OC(O)C(NS(=O)(=O)O)C7O)C(OS(=O)(=O)O)C6O)C(NS(=O)(=O)O)C5O)C(OS(=O)(=O)O)C4O)C(NS(=O)(=O)O)C3OS(=O)(=O)O)C(O)C2O)OC(COS(=O)(=O)O)C(OC2OC(C(=O)O)=CC(O)C2O)C1O (centres unmarked) come in under 70 nM for plasma concentration? Yes
